Hi there, I'd appreciate the recorded apparent KD of MS2 coat protein for every entry that follows.
Test system: MS2 coat protein
Test: apparent KD of MS2 coat protein; designed switch direction (-1 OFF switch, 1 ON switch): 1; higher = weaker reporter binding
Details: input ligand: none
One number for each entry, in nM.

UUCUGAUAGCGAGGAUAUCGCGAGGAUCACCCGUGAGAAGGCGCAGAGCCGAGGAUCACCCGGCUGAUCCUGAGAAGGAGGUCA (Eterna round: R96, puzzle: Same State NG 1)	530
CAGAGCCCAUGGGCCUGACAUGAGGAUCACCCAUGUGGCUUUGAGGAUAUAAGCGGAAACACCGCUUAGAAGGCGAAGCCUAAC [Atxerati] (Eterna round: R96, puzzle: Same State NG 3)	34.3

API: the following record is the query input.
Req: Sample UUGCGGGCUUGAGGAUAUUGAGUACAUAUGUUUAACAUGAGGAUCACCCAUGUGGGUUGCGGUAUCGAGAAGGUGGCUUCCUGC [salish99_SSNG2_r04_813] (Eterna round: R96, puzzle: Same State NG 2) — what was its apparent KD of MS2 coat protein?
Resp: 74.8

* * *

Test system: MS2 coat protein
Assay: apparent KD of MS2 coat protein; higher = weaker reporter binding
Settings: Eterna round: R107; input ligand: arginine 13.2 mM
Outcome measure: apparent KD of MS2 coat protein (nM)
Give bare numbers, in nM.

Below are worked cases with known answers.
UCCUCCUCCGGAAGGAGGAGGAGUUGCGAUACCAGCCCGGAAACGGGCCCUUGGCAGCGCACAUGAGGAUCACCCAUGUCAUGUU [#1 Exclusion - Theophylline A Attempt #7 (HarryS)]	16.7
AACAUACAAUUUUAGGUGGAUAUAAGGCGGCGAGGACCGGUACGGCCGCCACUCGCGUACAUGAGGAUCACCCAUGUCUGAAACU [Same State - Tryptophan A (Freestyle 5)]	14.6
GCACAUGAGGAUCACCCAUGUAUUACUGAAGGAGCGAGACAGAACUCAGGUAGGUCGCAGACUGCACAAUUGCGGACGACAUGGG [Exclusion Arginine A GF22]	14.6

Take each entry in turn and give its apparent KD of MS2 coat protein.
1. CACAAUUUGUCGGCCGCCACUAAGGUAACUUUUCUCACAUGAGGAUCACCCAUGUGCCCGAAACUUAGGACCGGGAUAAUGGGUG [Usteraor]
2. ACGAACUGUAGUGAUACCAGACACACAUGAGGAUCACCCAUGUUGUUAGCAUGGUGAAUAGUCCCUUGGCAGCACAGUUAGUUCG [#12 Exclusion-TheophyllineB]

Resp:
1: 35.9; 2: 71.5

Req: Sample CUAUUUAUAGCGGCCGCCACUUACUCAUGAGGUAACAACAUGAGGAUCACCCAUGUUUGAGGAUCAAGGACCGGGCUAUAGAUAG [AstrosSSTryB#11] — what was its apparent KD of MS2 coat protein?
Resp: 36.7

* * *

Hi there, I'd appreciate the recorded apparent KD of K4 kissing-loop reporter for every entry that follows.
Test system: K4 kissing-loop RNA reporter;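 note: bound reporter read as fluorescence of individual clusters on recovered sequencing chips by microscopy, with normalized cluster intensities fitted with a binding model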
Assay: apparent KD of K4 kissing-loop reporter; higher = weaker reporter binding
Conditions: Eterna round: R107; input ligand: theophylline 20 uM
Answers are plain numbers, in nM.

Take each entry in turn and give its apparent KD of K4 kissing-loop reporter.
1. AAUUUAUAUUUAUUCUUUAAUUGUUCAGAAGGAGCGUGAAUUAUCACAGGUAGGUCGCUGAGCUAGUGAUGUUAGCUAUAUACUA [JR_ExcArginiA_Sub008]
2. UAUUGCCACAGAGUGAUGUUCUGGCCGGAUACCAGCAUGCAAUUAUGCCCUUGGCAGCCGGAUGCGCGUCCAGCCACCGGGCCUG [theeternabot_exclusion_KL_Theo_A_29]
3. UGUGGAGAAUAUGAUACCAGCAGUGAGAGAGAGGAAGUAUAGUGAUGUUAUAUGAGAGAAUGCCCUUGGCAGCAUAAGAAGAAGG [SSTheophylB.D]
4. AGAGUUAUGCGAGGAUAUGCAGUUAGUACUCAAAGAGUACUAACGCAGAGUGAUGUUCUGUGAAAAGCAGAAGGUGCAUAACUCA [Omei KL FMN B SS B v6]
5. AAUUUAUUAACUGAUACCAGACUAAUUUUAUUUAUUAAGUCAAGUGAUGUUUGACUUUAUGUCCCUUGGCAGCAGAAUUAAUUAA [JR_SSTheophyB_Sub019]
6. UAAUAAAUUCCAGCGAUGUCACUCUUCGAAGGAGCGGACGAAAGUCCAGGUAGGUCGCGAAGAGUGAUGUUCUUCGCGGCGCUGG [Omei KL Arginine A Exc A v3]

Resp:
1: 82.8; 2: 1280; 3: 277; 4: 597; 5: 112; 6: 204

* * *

Test system: MS2 coat protein
Experiment: apparent KD of MS2 coat protein; higher = weaker reporter binding
Details: Eterna round: R107; input ligand: theophylline 2 mM
Binary call on apparent KD of MS2 coat protein: Fulfilled from 300 nM upward, Not fulfilled beneath that.

Example results:
GGGUACAUCGCGGCCGCCACUCAUGUAAAUUCAUGAGGAUCACCCAUGACGAUGGAGACAUCGGAGAGGACCGGGUGAUGUACCG	Not fulfilled
UGUGUGUGACCAGGAAAUGGUCACACACAGCGAGGACCGGUACGGCCGCCACUCGGCCGUACAUGAGGAUCACCCAUGUCGGGUA [#1 Same State - Tryptophan A Attempt #9 (HarryS)]	Fulfilled
UGAUACCAGUCGGCCGCCACUACAUGAGGAUCACCCAUGUAUCCUCAACUGCUAGAUACUAGCAGUAGGACCGGGACUGGUAUCU	Fulfilled
AAACAUGAGGAUCACCCAUGUCCUCCUGUCCGAGGACCGGUACGGCCGCCACUCGGUUCUCGGGAGGAUGGUCAAAGACUAUCCA [Omei Trp A SS B v9]	Fulfilled
UGUACCAUGUCGGCCGCCACUCAUGAUAAACAAGAGGAUCACCCUUGUAGCGUCAAAGACGCUAUGAGGACCGGGACAUGGUACU [TryBS Zipper 2]	Not fulfilled

Req: Decide: apparent KD of MS2 coat protein of UCGCUCUGGGUGAGAUCCGGAGAUGUGGAAGGAGCGCUGGAAACAGCAGGUAGGUCGCCAACGGACAUGAGGAUCACCCAUGUAC [Same State - Arginine A (Freestyle 19)] >= 300 nM?
Resp: Not fulfilled

* * *

Tested on: MS2 coat protein
Test: apparent KD of MS2 coat protein; designed switch direction (-1 OFF switch, 1 ON switch): -1; higher = weaker reporter binding
Conditions: Eterna round: R95; input ligand: microRNA oligo, concentration not stated
Hi there, I'd appreciate the recorded apparent KD of MS2 coat protein for every entry that follows.
Give bare numbers, in nM.

CUCAGACAUGAGGAUCACCCAUGUGAGGAUAUGAUGCAGCAGUGGUCUACGCUGUGCAUCAGAAGGCACAUGUG (puzzle: Exclusion 1)	33
GGUUGGCGAGGAUAUACAUGAGGAUCACCCAUGUGAGAGAAAAAAGUGAGGAAGAAAAGUAGAAGGCGCUGACC [salish99_ex3_r3_048] (puzzle: Exclusion 3)	44.6
CAUACUAAAGUCAGGAUAUGCGGUCGAAUACGGGUGUAGAAGGGACAUGAGGAUCACCCAUGUAGAUAGUAAAG [EX-4 Malc #18] (puzzle: Brourd's mod of Exclusion 4)	90.2
GUGUGCAGAGGAUAUACAUAGUAAAAUAAAAUAUAAUAGGGACAUGAGGAUCACCCAUGUAGAAGGCUGAGUGU [Excluse me!! 23 - Jieux - Exclusion 2] (puzzle: Exclusion 2)	41.7

API: the following record is the query input.
Req: Sample GGAAAAUGAGGAUAUACAUGUUUGAUACCUCUACGCCCGCAACAUGAGGAUCACCCAUGUAGAAGGCAUGAAAA [Marius] (puzzle: Exclusion 2) — what was its apparent KD of MS2 coat protein?
Resp: 13.9

* * *

Hi there, I'd appreciate the recorded apparent KD of MS2 coat protein for every entry that follows.
System: MS2 coat protein
Test: apparent KD of MS2 coat protein; designed switch direction (-1 OFF switch, 1 ON switch): -1; higher = weaker reporter binding
Details: input ligand: none
Give bare numbers, in nM.

Below are worked cases with known answers.
UAUUAGCAAGUAAGGUCCCACAUGAGGAUCACCCAUGUGCUCGUCACCUCAGGUACGGAGCGGAAACUCCCGAUAUG [Sensor-V1 #91] (Eterna round: R97, puzzle: Sensor, turn-off variant 1)	83.1
ACGUGAUAUCUGUCGGUGGACAUGAGGAUCACCCAUGUAAGCUUUUUGCUUGUCUUAUAACCCGGUGACAGACCUUC [Inxeer] (Eterna round: R96, puzzle: Sensor v3, turn-off variant 1)	35.1

Req: Short answer please: apparent KD of MS2 coat protein, MS2 coat protein, entry AUUAUAAAUGUAGGAUAUCUGCACGUUUAGUGCAGAGAAGGACAUGAGGAUCACCCAUGUAGAUCAAUAAUAAUUAAUUUAAUU [ENG1/5-B2] (Eterna round: R96, puzzle: Exclusion NG 1)
Resp: 33.7
